Data credit: the supplement of paper PMC9233669

# Tested on: biotinyl-Ile-oxazolone
# test_details: self-aminoacylation, catalytic enhancement (BIO) (fold over background); higher = more active; k-Seq, kA / k0A0; sequences stand for … in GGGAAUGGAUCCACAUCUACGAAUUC…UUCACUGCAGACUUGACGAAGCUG
Variants at the floor of the assay were thinned out.
Please use 1 (yes) whenever self-aminoacylation is not below 1, and 0 (no) whenever it is.

Observe how each entry below is paired with its result.
[[record]]
sequence = "AAGUUUGCUAACAGUCACAAG [Fam3.1 aminoacylation ribozyme variant]"
target_desc = "biotinyl-Ile-oxazolone"
class = "0 (no)"

[[record]]
sequence = "CCACCCUUCAAGCAAUCGUUC [Fam1B.1 aminoacylation ribozyme variant]"
target_desc = "biotinyl-Ile-oxazolone"
class = "0 (no)"


[ask] Does CCACCCUUCAAACAAUCGGUC [Fam1B.1 aminoacylation ribozyme variant] have a reported self-aminoacylation of at least 1?
[reply] 1 (yes)

[ask] Continue with CCACCCUACAAGCAAUCGGUC [Fam1B.1 aminoacylation ribozyme variant]
[reply] 1 (yes)

[ask] Continue with AUUCCCCGAGGUCAUCGGGUG [Fam2.2 aminoacylation ribozyme variant]
[reply] 1 (yes)

[ask] Continue with AUUACCCUGGUCACCGAGUGC [Fam2.1 aminoacylation ribozyme variant]
[reply] 1 (yes)

[ask] Continue with AAGUUUGCGAAUGGUCGCAAG [Fam3.1 aminoacylation ribozyme variant]
[reply] 0 (no)

[ask] Continue with AUUCACCCAGGUCAUCGGGCG [Fam2.2 aminoacylation ribozyme variant]
[reply] 1 (yes)

[ask] Continue with AUCCACCUAGGUCAUUGGGUG [Fam2.2 aminoacylation ribozyme variant]
[reply] 1 (yes)

[ask] Continue with AUUCGCCUAGGUCUUCGGGUG [Fam2.2 aminoacylation ribozyme variant]
[reply] 1 (yes)

###

# Test system: biotinyl-Leu-oxazolone
# test_details: self-aminoacylation, catalytic enhancement (BLO) (fold over background); higher = more active; k-Seq, kA / k0A0; sequences stand for … in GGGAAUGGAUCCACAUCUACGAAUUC…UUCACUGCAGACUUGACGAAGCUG
Fewer inactive variants are shown than the library holds.
assay_endpoint: self-aminoacylation
Answers are plain numbers.

Below are worked cases with known answers.
[[record]]
sequence = "CCACACUUCUAGCAAUAGGUC [Fam1B.1 aminoacylation ribozyme variant]"
target_desc = "biotinyl-Leu-oxazolone"
assay_endpoint = "self-aminoacylation"
reported_value = 0.53

[[record]]
sequence = "AAGUUUGUCAAUAGUCGCAAG [Fam3.1 aminoacylation ribozyme variant]"
target_desc = "biotinyl-Leu-oxazolone"
assay_endpoint = "self-aminoacylation"
reported_value = 2.25

[[record]]
sequence = "AAUACCCUGGUAAUCGAGUGA [Fam2.1 aminoacylation ribozyme variant]"
target_desc = "biotinyl-Leu-oxazolone"
assay_endpoint = "self-aminoacylation"
reported_value = 8.53

[[record]]
sequence = "AUUACCAUGGUCAUCCAGUGA [Fam2.1 aminoacylation ribozyme variant]"
target_desc = "biotinyl-Leu-oxazolone"
assay_endpoint = "self-aminoacylation"
reported_value = 6.27

[[record]]
sequence = "AUUACCCUGGUCAUCGCGUGC [Fam2.1 aminoacylation ribozyme variant]"
target_desc = "biotinyl-Leu-oxazolone"
assay_endpoint = "self-aminoacylation"
reported_value = 4.64


Provide self-aminoacylation for all items below, preserving their order.
1. AAGUUAGCUAAUAGUCGCCAG [Fam3.1 aminoacylation ribozyme variant]
2. UUUACCCUGGUCAUCGAAUGA [Fam2.1 aminoacylation ribozyme variant]
3. CCACCCUUCAAGCAAUCGGAC [Fam1B.1 aminoacylation ribozyme variant]
4. AGUCACCUAGGUCAUAGGGUG [Fam2.2 aminoacylation ribozyme variant]

[reply]
1.67
1.19
0.712
2.56
